# protein stability index values compiled below
B1: GLT8D2 (parent)
chain: QEAKLLHWNGRHKPWDFPSVHNDL

Variants of: B1
Assay: protein stability index of a GFP-peptide fusion (GPS, HEK-293T) (PSI 1-6); higher = more stable;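 further: lentivirally expressed fusions sorted by FACS into six bins by GFP to DsRed ratio, PSI derived from sequencing read proportions per bin multiplied by bin number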
Conditions: c terminus: a fixed tail appended
Note: the reply should be a number with no unit written.

variant_annotation=A3F numeric_result=2.25
variant_annotation=N22E numeric_result=3.2
variant_annotation=F17T numeric_result=3.17
variant_annotation=P14I numeric_result=2.03
variant_annotation=F17S numeric_result=3.96
variant_annotation=L6C numeric_result=2.75
variant_annotation=H21L numeric_result=2.39
variant_annotation=N22G numeric_result=2.63

Let me know recorded protein stability index for H12N , thanks.
2.65
